system: PC-3 prostate; experiment: NCI tumour cell line growth inhibition, 48 h
measurement label: TGI

compound: CC(C)C1=C(O)C2=C(C(=O)C1=O)C1(C)CCCC(C)(C)C1C(O)C2OC=O (stereo unspecified)
result: 30.6 µM
//
compound: Cc1cc2c(cc1Cl)S/C(=C/C(=O)O)C(Nc1cccc3nsnc13)=NS2(=O)=O
result: > 75.8 µM
//
compound: c1ccc(C2CC(=NC3CCCCC3)Nc3ccccc3N2)cc1 (stereo unspecified)
result: > 100 µM
//
compound: COc1cc2nc(-c3ccc(C(F)(F)F)cc3)cc(OCCCN3CCCC3)c2cc1OC
result: 9.79 µM
//
compound: CCNCCNc1cc(-c2ccc(C#N)cc2)c(C#N)c2nc3ccccc3n12
result: 20.7 µM
//
compound: C=CC(=O)N1C/C(=C\c2ccc(Cl)cc2)C(=O)/C(=C/c2ccc(Cl)cc2)C1
result: 0.751 µM
//
compound: C[C@H]1OC(=O)[C@@H]2N=NN(Cc3ccccc3)[C@H]12
result: > 100 µM
//
compound: COc1ccc(Oc2cnn(C(Br)(Br)C(C)=O)c(=O)c2Br)cc1
result: 27.4 µM
//
compound: CCOC(=O)C1=CC(C)(C(=O)OCC)Nc2c(nc(N)[nH]c2=O)N1 (stereo unspecified)
result: > 10 µM
//
compound: O=C1CS(=O)(=O)C(c2cccc(Oc3ccccc3)c2)N1c1cc(Cl)ccc1Cl (stereo unspecified)
result: 32 µM
//
compound: CC(=Nc1ccc(S(N)(=O)=O)cc1)c1c(O)[nH]c2ccccc12
result: > 25 µM
//
compound: C[C@]12CC[C@@H]3c4ccc(O)cc4CC[C@H]3[C@@H]1C/C(=C\c1ccc(C#N)cc1)C2=O
result: > 100 µM
//
compound: Cc1cc(O)c(-c2cc(O)c(C)cc2O)cc1O
result: 27.6 µM
//
compound: O=C1C2=Nc3ccccc3C(O)(C(=O)O)N2c2ccccc21 (stereo unspecified)
result: 20 µM
//
compound: CCOC(=O)C(NC(=O)Nc1ccc(Cl)cc1)(OC)C(F)(F)F (stereo unspecified)
result: > 100 µM
//
compound: Nc1cc(-c2ccc(Cl)cc2)nn1-c1nnc(/C=C/c2ccco2)c(=O)[nH]1
result: > 75 µM
//
compound: O=[N+]([O-])/C(Cl)=C(\NCCN/C(C(Cl)=C(Cl)Cl)=C(/Cl)[N+](=O)[O-])C(Cl)=C(Cl)Cl
result: > 100 µM
//
compound: Cc1ccc(NC(=O)/C(Cc2cc(=O)oc3cc(O)ccc23)=N\NC(=O)C[N+](C)(C)C)cc1C
result: > 100 µM
//
compound: CN1N=C(c2ccncc2)OC1c1ccccc1F (stereo unspecified)
result: > 100 µM
//
compound: CC#CC(O)(C(=O)OC1CC(C)N(C)C(C)(C)C1)C1CCCC1 (stereo unspecified)
result: > 100 µM
//
compound: CC(=O)n1nc(-c2ccccc2)n(/N=C/c2ccc([N+](=O)[O-])o2)c1=O
result: 30.9 µM
//
compound: O=C(/C=C/c1cccc(O)c1)c1cccc(-n2cc(-c3ccc4ccccc4c3)[nH]c2=O)c1
result: 7.9 µM
//
compound: COc1cc(C2c3cc4c(cc3[C@@H](Nc3ccc5c(c3)OCCO5)C3COC(=O)[C@H]23)OCO4)cc(OC)c1O (stereo partly specified)
result: > 100 µM
//
compound: CC(=O)Oc1c(C)c(C)c2c(c1C)CCC(C)(CC(=O)OCCCCCCCCCCC[P+](c1ccccc1)(c1ccccc1)c1ccccc1)O2 (stereo unspecified)
result: 0.976 µM
//
compound: COc1cccc2c1OCC1Cc3ccccc3OC21 (stereo unspecified)
result: > 100 µM
//
compound: CC(C)N1CN(c2ccccc2)C2(CCN(CCCC(=O)c3ccc(F)cc3)CC2)C1=O
result: > 71 µM
//
compound: O=C(c1cccs1)C1NO[N+]([O-])=C1c1cccs1 (stereo unspecified)
result: 22.3 µM
//
compound: Cc1cc(C)n(C2=NS(=O)(=O)c3ccccc3N2C)n1
result: > 100 µM
//
compound: c1cnn2ncc(-c3ccnc(Nc4ccc5c(c4)OCCO5)n3)c2c1
result: > 25 µM
//
compound: CC(C)C(N)C(=O)NC(CCC(=O)NCCCCC(N)C(=O)NCCCNc1ccc([N+](=O)[O-])c2[nH]c3ccccc3c(=O)c12)C(N)=O (stereo unspecified)
result: > 100 µM
//
compound: COc1ccc2[nH]c(-c3ccc(O)cc3)cc(=O)c2c1
result: > 100 µM

###

system: OVCAR-3 ovarian; assay: NCI tumour cell line growth inhibition, 48 h
measurement label: TGI

molecule: COc1ccc(N2C(=O)C3c4[nH]c5ccccc5c4C4CCCCCCCCCC4C3C2=O)cc1 (centres undefined)
measured on: OVCAR-3 ovarian
result: > 10 µM
//
molecule: CCN(CC)c1ccc(/C=C/C2=[N+](C)c3ccccc3C2(C)C)c(C)c1
measured on: OVCAR-3 ovarian
result: 1.47 µM
//
molecule: O=S1SC(=S)C2C=CC=CC21 (centres undefined)
measured on: OVCAR-3 ovarian
result: > 100 µM
//
molecule: CCCCCCCCCCCCCCCCCCOCC(COCCOCC[N+]1(CCCCCC(=O)[O-])CCCC1)Oc1ncccn1 (centres undefined)
measured on: OVCAR-3 ovarian
result: 20.4 µM
//
molecule: Cc1c(-c2ccccc2)[nH]n(C2=NCCN2)c1=O
measured on: OVCAR-3 ovarian
result: > 100 µM
//
molecule: O=C(c1cccs1)C1NO[N+]([O-])=C1c1cccs1 (centres undefined)
measured on: OVCAR-3 ovarian
result: 3.2 µM
//
molecule: CSc1ccc(N(C)c2nc(C)nc3c2CCC3)cc1
measured on: OVCAR-3 ovarian
result: < 0.01 µM
//
molecule: C[C@H]1OC(=O)[C@@H]2N=NN(Cc3ccccc3)[C@H]12
measured on: OVCAR-3 ovarian
result: > 100 µM
//
molecule: O=C(O)c1ccccc1C(=O)c1ccc2c(c1)Cc1ccccc1-2
measured on: OVCAR-3 ovarian
result: > 100 µM
//
molecule: O=C(CC(C(=O)c1ccco1)c1ccco1)c1ccco1 (centres undefined)
measured on: OVCAR-3 ovarian
result: > 100 µM
//
molecule: O=C(CC1(O)C(=O)Nc2c(Cl)ccc(Cl)c21)c1ccc(Cl)cc1Cl (centres undefined)
measured on: OVCAR-3 ovarian
result: 30.9 µM
//
molecule: CCCCCCCCCCCCCC[n+]1cccc(C(N)=O)c1
measured on: OVCAR-3 ovarian
result: 5.02 µM
//
molecule: CCOC(OC1=C(C#N)CCCC1)C(CC)[Se]c1ccccc1 (centres undefined)
measured on: OVCAR-3 ovarian
result: 54.6 µM
//
molecule: O=C1/C(=C/c2ccc([N+](=O)[O-])cc2)COc2ccc(O)cc21
measured on: OVCAR-3 ovarian
result: 11.8 µM
//
molecule: Nc1nc(Nc2ccccc2)sc1C(=O)c1ccco1
measured on: OVCAR-3 ovarian
result: 31.5 µM
//
molecule: Cc1cc2c(cc1Cl)S/C(=C/C(=O)O)C(Nc1cccc3nsnc13)=NS2(=O)=O
measured on: OVCAR-3 ovarian
result: > 69.8 µM
//
molecule: COc1cc2nc(-c3ccc(C(F)(F)F)cc3)cc(OCCCN3CCCC3)c2cc1OC
measured on: OVCAR-3 ovarian
result: > 42.2 µM
//
molecule: c1ccc([P+](CCCCCCCC[P+](c2ccccc2)(c2ccccc2)c2ccccc2)(c2ccccc2)c2ccccc2)cc1
measured on: OVCAR-3 ovarian
result: > 100 µM
//
molecule: N#Cc1c(-c2ccco2)cc(-c2ccccc2)[nH]c1=O
measured on: OVCAR-3 ovarian
result: > 100 µM
//
molecule: O=C(Cl)C1=C(c2ccccc2)C1c1ccccc1 (centres undefined)
measured on: OVCAR-3 ovarian
result: > 100 µM
//
molecule: CSc1nc2c(ncn2C2OC(CO)C(O)C(O)C2O)c(=O)[nH]1 (centres undefined)
measured on: OVCAR-3 ovarian
result: > 100 µM
//
molecule: O=S1(=O)c2cnccc2NC(=NCc2ccccc2)N1c1ccccc1
measured on: OVCAR-3 ovarian
result: > 100 µM
//
molecule: CCOP(=O)(OCC)OC1CC(n2cc(C)c(=O)n(C)c2=O)OC1CO[Si](C)(C)C(C)(C)C (centres undefined)
measured on: OVCAR-3 ovarian
result: > 100 µM
//
molecule: COc1ccc(-c2cnoc2-c2cc(OC)c3c(c2)OCCO3)cc1
measured on: OVCAR-3 ovarian
result: 1.55 µM
//
molecule: COc1ccc(NC(C)c2ccncc2)cc1 (centres undefined)
measured on: OVCAR-3 ovarian
result: > 100 µM
//
molecule: CCOC(=O)c1sc2ncnc(N)c2c1C
measured on: OVCAR-3 ovarian
result: > 100 µM
//
molecule: O=C1CS(=O)(=O)C(c2cccc(Oc3ccccc3)c2)N1c1cc(Cl)ccc1Cl (centres undefined)
measured on: OVCAR-3 ovarian
result: 35.1 µM
//
molecule: O=C(O)/C=C\C(=O)Nc1ccc(S(=O)(=O)c2ccc(NC(=O)/C=C\C(=O)O)cc2)cc1
measured on: OVCAR-3 ovarian
result: > 100 µM
//
molecule: COC(=O)N1N=C(c2ccccc2)C1c1ccccc1 (centres undefined)
measured on: OVCAR-3 ovarian
result: > 100 µM
//
molecule: CC(C)Oc1ccc(C(=O)Cn2ccnc2)cc1-n1c(CN2CCN(C(=O)COc3ccc(Cl)cc3)CC2)nc2ccccc2c1=O
measured on: OVCAR-3 ovarian
result: 13.2 µM
//
molecule: Cc1cc(C)c(/C=C(\C(=C/c2c(C)cc(C)cc2C)[N+](=O)[O-])[N+](=O)[O-])c(C)c1
measured on: OVCAR-3 ovarian
result: > 100 µM
//
molecule: CN(C)c1ccc(Cc2cc3c(O)ccc(O)c3cc(Cc3ccc(N(C)C)cc3)c2=O)cc1
measured on: OVCAR-3 ovarian
result: 54.2 µM
//
molecule: COc1ccc(-c2c(C3=NCCCN3)nnn2-c2ccc([N+](=O)[O-])cc2)cc1
measured on: OVCAR-3 ovarian
result: > 100 µM
//
molecule: C=CCNC(=O)N(CCC)CCCC(NC(C)=O)C(=O)NCc1ccccc1 (centres undefined)
measured on: OVCAR-3 ovarian
result: > 100 µM
